MEASUREMENT_DESCRIPTION: Toxicokinetics test in the satellite groups (UPLC-MS/MS of rat plasma)
Assay type: in vivo
RECORDED_CONDITIONS: female, SD, rat, plasma, po, female rats, Day 28, middle dose (berberine 24.03, epiberberine 2.47, coptisine 2.47, palmatine 6.09, jatrorrhizine 0.93, columbamine 1.98 mg/kg); read-out: Cmax mean
Kindly state Cmax for each of the entries shown.
All answers are understood in ng/mL, so give the number only.

Prompt: I am curious: what Cmax value has been reported for `COc1cc2c(cc1O)CC[n+]1cc3c(OC)c(OC)ccc3cc1-2` ?
Completion: 1.29

Prompt: I am curious: what Cmax value has been reported for `COc1cc2c(cc1O)-c1cc3ccc(OC)c(OC)c3c[n+]1CC2` ?
Completion: 1.35
